# Test system: K.p HX77
# test-summary: MIC, two-fold agar dilution, clinical isolate
# Assay type: cell-based
# test-settings: single drug, average of three tests
Please go through the items and note down their MIC.
Give just the numeric value; µg/mL need not be written.

Request: Hello, please tell me recorded MIC for this one: NC[C@@H]1CN(C[C@@H]2[C@H](NC(=O)/C(=N\OC3(C(=O)O)CC3)c3csc(N)n3)C(=O)N2S(=O)(=O)O)S(=O)(=O)N1 [Compound 4]
Response: 0.03

Request: Hello, please tell me recorded MIC for this one: Nc1nc(/C(=N/OC2(C(=O)O)CC2)C(=O)N[C@@H]2C(=O)N(S(=O)(=O)O)[C@@H]2CN2CCOC2=O)cs1 [LYS 228]
Response: 0.03

Request: Hello, please tell me recorded MIC for this one: C[C@H]1[C@H](NC(=O)/C(=N\OC(C)(C)C(=O)O)c2csc(N)n2)C(=O)N1S(=O)(=O)O [Aztreonam]
Response: 16

Request: Hello, please tell me recorded MIC for this one: C[C@@H](O)[C@H]1C(=O)N2C(C(=O)O)=C(S[C@@H]3CN[C@H](C(=O)N(C)C)C3)[C@H](C)[C@H]12 [Meropenem]
Response: 16

* * *

# System: Klebsiella pneumonia ATCC BAA-1705 (KPC-2)
# test-summary: MIC, micro-liquid dilution (CLSI)
# Format: cell-based
# test-settings: Klebsiella pneumoniae, ATCCBAA1705; K. pneumonia ATCC BAA-1705, Class A (KPC-2); 20-24 h, 37° C.
value-type: MIC (µg/mL)
Give just the numeric value; µg/mL need not be written.

Request: Hello, please tell me recorded MIC for this one: CC(=O)OC[C@@H]1CN(C[C@@H]2[C@H](NC(=O)/C(=N\OC3(C(=O)O)CC3)c3csc(N)n3)C(=O)N2S(=O)(=O)O)S(=O)(=O)N1
Response: 2

Request: Hello, please tell me recorded MIC for this one: Nc1nc(/C(=N/OC2(C(=O)O)CC2)C(=O)N[C@@H]2C(=O)N(S(=O)(=O)O)[C@@H]2CN2CCNS2(=O)=O)cs1
Response: 0.5

Request: Hello, please tell me recorded MIC for this one: N=C(N)NC[C@@H]1CN(C[C@@H]2[C@H](NC(=O)/C(=N\OC3(C(=O)O)CC3)c3csc(N)n3)C(=O)N2S(=O)(=O)O)S(=O)(=O)N1
Response: 1

Request: Hello, please tell me recorded MIC for this one: NC[C@@H]1CN(C[C@@H]2[C@H](NC(=O)/C(=N\OC3(C(=O)O)CC3)c3csc(N)n3)C(=O)N2S(=O)(=O)O)S(=O)(=O)N1
Response: 1

Request: Hello, please tell me recorded MIC for this one: CC(=O)NC[C@@H]1CN(C[C@@H]2[C@H](NC(=O)/C(=N\OC3(C(=O)O)CC3)c3csc(N)n3)C(=O)N2S(=O)(=O)O)S(=O)(=O)N1
Response: 8

Request: Hello, please tell me recorded MIC for this one: Nc1nc(/C(=N/OC2(C(=O)O)CC2)C(=O)N[C@@H]2C(=O)N(S(=O)(=O)O)[C@@H]2CN2CCCNS2(=O)=O)cs1
Response: 2

* * *

# System: K.p CRE16
# test-summary: MIC, two-fold agar dilution, clinical isolate
# Type: cell-based
# test-settings: single drug, average of three tests
value-type: MIC

Request: Consider the molecule NC[C@@H]1CN(C[C@@H]2[C@H](NC(=O)/C(=N\OC3(C(=O)O)CC3)c3csc(N)n3)C(=O)N2S(=O)(=O)O)S(=O)(=O)N1 tested on K.p CRE16; state its MIC.
Response: 0.06 µg/mL

Request: Consider the molecule C[C@@H](O)[C@H]1C(=O)N2C(C(=O)O)=C(S[C@@H]3CN[C@H](C(=O)N(C)C)C3)[C@H](C)[C@H]12 tested on K.p CRE16; state its MIC.
Response: 8 µg/mL

Request: Consider the molecule Nc1nc(/C(=N/OC2(C(=O)O)CC2)C(=O)N[C@@H]2C(=O)N(S(=O)(=O)O)[C@@H]2CN2CCOC2=O)cs1 tested on K.p CRE16; state its MIC.
Response: 0.06 µg/mL

Request: Consider the molecule C[C@H]1[C@H](NC(=O)/C(=N\OC(C)(C)C(=O)O)c2csc(N)n2)C(=O)N1S(=O)(=O)O tested on K.p CRE16; state its MIC.
Response: 64 µg/mL
